// provenance: the supplement of paper PMC10883282

What relative viability was measured for each of the following?
Tested on: SYO-1
test_protocol: relative viability vs DMSO control (72 h) (fraction); higher = more viable cells
recorded_conditions: 0.04115 µM
Would you mind answering with just the numeric figure?

INPUT: Read off the recorded relative viability for "CO[C@H]1C[C@@H]2CC[C@@H](C)[C@@](O)(O2)C(=O)C(=O)N2CCCC[C@H]2C(=O)O[C@H]([C@H](C)C[C@@H]2CC[C@@H](OC(=O)C(C)(CO)CO)[C@H](OC)C2)CC(=O)[C@H](C)/C=C(\C)[C@@H](O)[C@@H](OC)C(=O)[C@H](C)C[C@H](C)/C=C/C=C/C=C/1C"
OUTPUT: 0.749

INPUT: Read off the recorded relative viability for "COc1cc(Nc2ncc3c(n2)-c2ccc(Cl)cc2C(c2c(F)cccc2OC)=NC3)ccc1C(=O)O"
OUTPUT: 0.783

INPUT: Read off the recorded relative viability for "C[C@@H]1CN(C(=O)c2ccc(NC(=O)c3cc(O[C@H](C)c4c(Cl)ccc(F)c4Cl)c(N)nn3)cc2)C[C@H](C)N1"
OUTPUT: 0.981

INPUT: Read off the recorded relative viability for "O=C(c1ccc(F)c(F)c1Nc1ccc(I)cc1F)N1CC(O)([C@@H]2CCCCN2)C1"
OUTPUT: 0.907

INPUT: Read off the recorded relative viability for "CNC(=O)c1c(C)oc2cc(Oc3ncnc4cc(OC)c(OC)cc34)ccc12"
OUTPUT: 0.918

----------
System: SK-ES-1
test_protocol: relative viability vs DMSO control (72 h) (fraction); higher = more viable cells
recorded_conditions: 0.04115 µM
// returns not fulfilled unless relative viability is strictly below 1, in which case fulfilled

INPUT: # check: relative viability < 1 for "C=CC(=O)N1CCC(CNc2ncnc(N)c2-c2ccc(Oc3ccccc3)cc2)CC1"
OUTPUT: not fulfilled

INPUT: # check: relative viability < 1 for "CO[C@H]1C[C@@H]2CC[C@@H](C)[C@@](O)(O2)C(=O)C(=O)N2CCCC[C@H]2C(=O)O[C@H]([C@H](C)C[C@@H]2CC[C@@H](OC(=O)C(C)(CO)CO)[C@H](OC)C2)CC(=O)[C@H](C)/C=C(\C)[C@@H](O)[C@@H](OC)C(=O)[C@H](C)C[C@H](C)/C=C/C=C/C=C/1C"
OUTPUT: fulfilled

INPUT: # check: relative viability < 1 for "COC(=O)c1ccc2c(c1)NC(=O)/C2=C(\Nc1ccc(N(C)C(=O)CN2CCN(C)CC2)cc1)c1ccccc1"
OUTPUT: not fulfilled

INPUT: # check: relative viability < 1 for "Cn1cnc2c(F)c(Nc3ccc(Br)cc3Cl)c(C(=O)NOCCO)cc21"
OUTPUT: fulfilled

INPUT: # check: relative viability < 1 for Cc1cc2c(F)c(Oc3ncnn4cc(OC[C@@H](C)OC(=O)[C@H](C)N)c(C)c34)ccc2[nH]1 [Brivanib_alaninate]
OUTPUT: not fulfilled

INPUT: # check: relative viability < 1 for O=S(=O)(c1cccc2c(O)nccc12)N1CCCNCC1 [Hydroxyfasudil]
OUTPUT: not fulfilled

INPUT: # check: relative viability < 1 for "COc1cc(N2CCC(N3CCN(C)CC3)CC2)ccc1Nc1ncc(Cl)c(Nc2ccccc2P(C)(C)=O)n1"
OUTPUT: fulfilled

----------
Test system: SK-LMS-1
test_protocol: relative viability vs DMSO control (72 h) (fraction); higher = more viable cells
recorded_conditions: 1.111 µM
measurement_kind: relative viability
Would you mind answering with just the numeric figure?

INPUT: Read off the recorded relative viability for "COc1cc(Nc2ncc3c(n2)-c2ccc(Cl)cc2C(c2c(F)cccc2OC)=NC3)ccc1C(=O)O"
OUTPUT: 0.803

INPUT: Read off the recorded relative viability for "CS(=O)(=O)CCNCc1ccc(-c2ccc3ncnc(Nc4ccc(OCc5cccc(F)c5)c(Cl)c4)c3c2)o1"
OUTPUT: 1.11

INPUT: Read off the recorded relative viability for "C#Cc1cccc(Nc2ncnc3cc4c(cc23)OCCOCCOCCO4)c1"
OUTPUT: 1.05

INPUT: Read off the recorded relative viability for "CCOc1cc2ncc(C#N)c(Nc3ccc(OCc4ccccn4)c(Cl)c3)c2cc1NC(=O)/C=C/CN(C)C"
OUTPUT: 0.698

INPUT: Read off the recorded relative viability for "CN(C)C/C=C/C(=O)Nc1cc2c(Nc3ccc(F)c(Cl)c3)ncnc2cc1O[C@H]1CCOC1"
OUTPUT: 0.724
